MEASUREMENT_TARGET: T1, human Claudin 18.2 (CLDN18.2) (human, UniProt P56856-2 1-261)
T1 construct: whole, on cells; recombinantly expressed on CHO, HEK293, NCI-N87, NUGC4 or PANC-1 cells; also called CHO-CLDN18.2
PROTOCOL: FACS Exp. 2, MFI ratio CHO-18.2 over CHO-18.1
Respond with label 1 for MFI_CHO-18.2/CHO-18.1 (@30 ug/ml) values of 2000 and above, label 0 for values below.

Exercise: Item hz282-4 (antibody, V domains shown, humanized IgG; constant regions not specified) VH: QVQLQESGPGLVKPSETLSLTCTVAGFSLTSYNVYWIRQPPGKGLEWIGVIWNTGATRYNSALKSRVTISKDTSKSQVSLKLSSVTAADTAVYYCARDSAMPAIPFAYWGQGTLVTVSS VL: DIVMTQSPDSLAVSLGERATINCKSSQSLFGSVRQKNYLAWYQQKPGQPPKLLIYLASTRESGVPDRFSGSGSGTDFTLTISSLQAEDVAVYYCQQYYDIPWTFGGGTKVEIK with MFI_CHO-18.2/CHO-18.1 (@30 ug/ml) of 2000 or above?
Key: label 1

Exercise: // repeat for hz282-19 (antibody, V domains shown, humanized IgG; constant regions not specified) VH: QVQLQESGPGLVKPSETLSLTCTVSGFSLTSYNVYWIRQPPGKGLEWIGVIWNTGATRYNSALKSRVTISKDTSKSQVSLKLSSVTAADTAVYYCARDSAMPAIPFAYWGQGTLVTVSS VL: DIVMTQSPSSLSASVGDRVTINCKSSQSLFGSVRQKNYLAWYQQKPGKSPKLLIYLASTRESGVPDRFSGSGSGTDFTLTISSLQPEDFAKYYCQQYYDIPWTFGGGTKVEIK and report
Key: label 0

Exercise: // repeat for 282A12F3 (T62A) (antibody, human IgG1, kappa, V domains shown, chimeric human IgG1, PTM site removed; also called 282A12F3-VH-NSA (T62A); 282A12 (T62A)) VH: QVQLKESGPVLVQPSQTLSLTCTVAGFSLTSYNVYWVRQPPGKGLEWMGVIWNTGATRYNSALKSRLSISKDTSKSQVFLKMNSLQTEDTATYYCARDSAMPAIPFAYWGQGTLVTVSS VL: DIVMTQSPSSLAVSAGETVTINCKSSQSLFGSVRQKNYLAWYQQKPGQSPKLLIYLASTRESGVPDRFIGSGSGTDFTLTISSVQAEDLAKYYCQQYYDIPWTFGGGTKLELKR and report
Key: label 0

Exercise: // repeat for hz282-20 (antibody, V domains shown, humanized IgG; constant regions not specified) VH: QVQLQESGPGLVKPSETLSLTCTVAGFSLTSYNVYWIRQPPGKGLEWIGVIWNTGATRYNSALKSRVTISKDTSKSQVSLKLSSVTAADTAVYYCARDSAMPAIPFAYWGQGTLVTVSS VL: DIVMTQSPSSLSASVGDRVTINCKSSQSLFGSVRQKNYLAWYQQKPGKSPKLLIYLASTRESGVPDRFSGSGSGTDFTLTISSLQPEDFAKYYCQQYYDIPWTFGGGTKVEIK and report
Key: label 0
